Data provenance: paper PMC9913023

Target: RIPK1 (receptor-interacting serine/threonine-protein kinase 1) (Homo sapiens)
Sequence (Q13546 whole entry): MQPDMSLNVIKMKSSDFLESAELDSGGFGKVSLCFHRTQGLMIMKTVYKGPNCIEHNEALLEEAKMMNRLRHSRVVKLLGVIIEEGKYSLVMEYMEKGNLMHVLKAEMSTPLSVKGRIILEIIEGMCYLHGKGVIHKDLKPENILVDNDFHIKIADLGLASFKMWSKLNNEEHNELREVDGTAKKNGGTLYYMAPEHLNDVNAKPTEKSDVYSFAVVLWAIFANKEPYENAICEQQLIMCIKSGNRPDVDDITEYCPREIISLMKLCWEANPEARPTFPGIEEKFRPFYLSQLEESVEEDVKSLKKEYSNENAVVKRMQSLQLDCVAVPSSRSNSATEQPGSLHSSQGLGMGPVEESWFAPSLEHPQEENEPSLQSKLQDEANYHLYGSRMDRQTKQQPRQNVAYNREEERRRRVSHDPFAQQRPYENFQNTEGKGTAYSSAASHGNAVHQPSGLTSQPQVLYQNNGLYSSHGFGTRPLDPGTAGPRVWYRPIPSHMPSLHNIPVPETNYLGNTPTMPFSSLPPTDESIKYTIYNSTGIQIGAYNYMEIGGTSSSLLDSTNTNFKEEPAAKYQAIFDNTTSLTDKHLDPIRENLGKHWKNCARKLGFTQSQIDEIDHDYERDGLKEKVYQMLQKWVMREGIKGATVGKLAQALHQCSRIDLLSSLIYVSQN
Experiment: ADP-Glo kinase assay with recombinant human RIPK1 ([…])
property label: pIC50
In plain terms, pIC50 is the concentration in mol/L turned into minus its base-10 logarithm.

Recorded pIC50 (compound Cc1ccc(F)c(NC(=O)Nc2ccc(-c3cccc4[nH]nc(N)c34)cc2)c1 [linifanib] ): 6.17
